Data provenance: patent US20040010001A1

- Test system: Human lung A459
- procedure_details: FGF-induced resistance, inhibition of BrdU incorporation
- Type: cell-based
- reported_conditions: A459, r-aFGF 1 ng/ml, read-out: Drug concentration needed to produce 50% inhibition
- Procedure: Prior to drug treatment, cells were incubated for 4 days with tumor CM or with r-aFGF ad/or r-bFGF-containing medium, supplemented with 1% FBS (final protein concentration adjusted to 2 mg/ml). The medium was renewed every other day. […] The experimental conditions are described briefly below. […] For the studies on cells derived from the human prostate, lung, pharynx, colon and breast cancer cells, the drug effect was determined by the inhibition of BrdU incorporation. […]
measure_name: IC50

compound="COc1cccc2c1C(=O)c1c(O)c3c(c(O)c1C2=O)C[C@@](O)(C(=O)CO)C[C@@H]3O[C@H]1C[C@H](N)[C@H](O)[C@H](C)O1 [Doxorubicin]" tested_on="Human lung A459" measure_name=IC50 result="120 nM"
